Data origin: patent US20260294922A1

Experiment: Pharmacokinetics after intraperitoneal administration in mice
Type: in vivo
Settings: mouse, ip, 50 mg/kg, plasma
MEASURED PARAMETER: AUC(0-t) (µM·h)
Write it as a number; the unit µM·h goes unstated.

Req: Give the measured AUC(0-t) of CN(C)C(=O)c1cc(NC(=O)c2cc3c(-c4cnc5[nH]ccc5c4)cccc3s2)ccc1O [CDD-2728] .
Resp: 5.7

###

Molecular target: UniProtKB P45984
Sequence (P45984 whole entry): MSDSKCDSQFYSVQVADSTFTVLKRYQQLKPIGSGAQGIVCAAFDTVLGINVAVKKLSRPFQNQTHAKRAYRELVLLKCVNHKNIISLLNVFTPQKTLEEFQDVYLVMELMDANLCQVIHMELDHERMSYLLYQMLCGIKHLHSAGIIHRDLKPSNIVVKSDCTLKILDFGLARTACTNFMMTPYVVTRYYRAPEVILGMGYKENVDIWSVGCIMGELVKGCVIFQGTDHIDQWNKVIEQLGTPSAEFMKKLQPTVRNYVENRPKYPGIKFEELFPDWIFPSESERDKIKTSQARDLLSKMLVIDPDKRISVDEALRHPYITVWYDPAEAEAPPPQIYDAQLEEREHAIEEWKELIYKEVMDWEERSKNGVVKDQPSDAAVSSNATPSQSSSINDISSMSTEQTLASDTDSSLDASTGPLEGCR
Test: JNK2 kinase (intrinsic ATPase, Kinase-Glo) assay
Type: biochemical
Parameter: Kd. Scope: all listed entries.
Write it as a number; the unit nM goes unstated.

Some compounds with recorded Kd:
1) COc1ccc(NC(=O)c2cc3c(-c4cnc5[nH]ccc5c4)cccc3s2)cc1C(=O)N1CCCCC1 [CDD-2491] :: 0.43
2) CNC(=O)c1cc(NC(=O)c2cc3c(-c4cnc5[nH]ccc5c4)cccc3s2)ccc1OC [CDD-2490] :: 5.37

Could you now look at the following compound, please?
Req: Give the measured Kd of NC(=O)c1cccc(NC(=O)c2cc3c(-c4cnc5[nH]ccc5c4)cccc3s2)c1 [CDD-2936] .
Resp: 9.09
